MIC values for the molecules below.
System: Escherichia coli
Experiment: Antibacterial activity against Escherichia coli K-12 MG1655 assessed as growth inhibition after 18 to 20 hrs by broth microdilution assay
Assay type: functional
Settings: time 18-20 hrs
attribute-measured: MIC

* C[C@@H]1O[C@H](CNS(=O)(=O)c2ccc(CCn3cc(CN4CCN(c5cc6c(cc5F)c(=O)c(C(=O)O)cn6C5CC5)CC4)nn3)s2)[C@@H](O)[C@H](O)[C@@H]1O | 8 µg/mL
* O=C(Cn1cc(CCN2CCN(c3cc4c(cc3F)c(=O)c(C(=O)O)cn4C3CC3)CC2)nn1)Nc1ccc(S[C@@H]2O[C@H](CO)[C@H](O)[C@H](O)[C@H]2O)cc1 | 8 µg/mL
* O=C(CCn1cc(CCN2CCN(c3cc4c(cc3F)c(=O)c(C(=O)O)cn4C3CC3)CC2)nn1)Nc1ccc(S[C@@H]2O[C@H](CO)[C@H](O)[C@H](O)[C@H]2O)cc1 | 16 µg/mL
* O=C(CCCCn1cc(CN2CCN(c3cc4c(cc3F)c(=O)c(C(=O)O)cn4C3CC3)CC2)nn1)Nc1ccc(S[C@@H]2O[C@H](CO)[C@H](O)[C@H](O)[C@H]2O)cc1 | 2 µg/mL
* O=C(O)c1cn(C2CC2)c2cc(N3CCNCC3)c(F)cc2c1=O [CIPROFLOXACIN] | < 0.125 µg/mL
* C[C@@H]1O[C@H](CNS(=O)(=O)c2ccc(CCn3cc(CCN4CCN(c5cc6c(cc5F)c(=O)c(C(=O)O)cn6C5CC5)CC4)nn3)s2)[C@@H](O)[C@H](O)[C@@H]1O | 16 µg/mL
* O=C(CCCn1cc(CCN2CCN(c3cc4c(cc3F)c(=O)c(C(=O)O)cn4C3CC3)CC2)nn1)Nc1ccc(S[C@@H]2O[C@H](CO)[C@H](O)[C@H](O)[C@H]2O)cc1 | 16 µg/mL
* O=C(Cn1cc(CN2CCN(c3cc4c(cc3F)c(=O)c(C(=O)O)cn4C3CC3)CC2)nn1)Nc1ccc(S[C@@H]2O[C@H](CO)[C@H](O)[C@H](O)[C@H]2O)cc1 | 2 µg/mL
* O=C(CCCn1cc(CN2CCN(c3cc4c(cc3F)c(=O)c(C(=O)O)cn4C3CC3)CC2)nn1)Nc1ccc(S[C@@H]2O[C@H](CO)[C@H](O)[C@H](O)[C@H]2O)cc1 | 1 µg/mL
* O=C(CCn1cc(CN2CCN(c3cc4c(cc3F)c(=O)c(C(=O)O)cn4C3CC3)CC2)nn1)Nc1ccc(S[C@@H]2O[C@H](CO)[C@H](O)[C@H](O)[C@H]2O)cc1 | 2 µg/mL
* O=C(CCCCn1cc(CCN2CCN(c3cc4c(cc3F)c(=O)c(C(=O)O)cn4C3CC3)CC2)nn1)Nc1ccc(S[C@@H]2O[C@H](CO)[C@H](O)[C@H](O)[C@H]2O)cc1 | 16 µg/mL
